Record form. Attribute: IC50 (read off the curve): C3b deposition (sheet title: LPS C3b 10% NHS). Fill in for each entry.
# target_entity: human properdin (human, UniProt P27918 28-469)
# Sequence (P27918 28-469 limits assumed): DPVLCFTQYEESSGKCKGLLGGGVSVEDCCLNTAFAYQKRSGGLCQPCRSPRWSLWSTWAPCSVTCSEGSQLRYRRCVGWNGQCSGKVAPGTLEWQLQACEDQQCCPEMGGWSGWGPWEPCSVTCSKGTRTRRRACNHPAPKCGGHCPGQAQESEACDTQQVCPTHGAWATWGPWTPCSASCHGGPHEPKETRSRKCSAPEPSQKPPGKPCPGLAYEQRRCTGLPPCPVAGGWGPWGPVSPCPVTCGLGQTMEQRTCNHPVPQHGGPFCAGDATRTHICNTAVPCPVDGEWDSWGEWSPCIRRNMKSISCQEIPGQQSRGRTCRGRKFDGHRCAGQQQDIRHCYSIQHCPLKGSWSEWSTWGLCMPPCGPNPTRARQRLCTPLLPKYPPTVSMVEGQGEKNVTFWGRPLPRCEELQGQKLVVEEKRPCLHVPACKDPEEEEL
# experiment: cell-based or functional assay

>>> reported_result("NMT17-101 (antibody, V domains shown) VH: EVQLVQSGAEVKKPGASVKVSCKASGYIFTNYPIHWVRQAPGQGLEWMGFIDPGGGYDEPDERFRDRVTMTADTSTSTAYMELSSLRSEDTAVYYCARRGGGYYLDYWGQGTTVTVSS VL: DIQMTQSPSSLSASVGDRVTITCRASQDISFFLNWYQQKPGKAPKLLIYYTSRYHSGVPSRFSGSGSGTDFTLTISSLQPEDFATYYCQHGSTLPWTFGQGTKLEIK")
"~0.5 µg/mL"
>>> reported_result("NMT28-101 (antibody, V domains shown) VH: EVQLVQSGAEVKKPGASVKVSCKASGYIFTNYPIHWVRQAPGQGLEWMGFIDPGGGYDEPDERFRDRVTMTADTSTSTAYMELSSLRSEDTAVYYCARRGGGYYLDYWGQGTLVTVSS VL: DIQMTQSPSSLSASVGDRVTITCRASQDISFFLNWYQQKPGKAPKLLIYYTSRYHSGVPSRFSGSGSGTDFTLTISSLQPEDFATYYCQHGQTLPWTFGQGTKVEIK")
"~0.5 µg/mL"
>>> reported_result("NMT17-100 (antibody, V domains shown) VH: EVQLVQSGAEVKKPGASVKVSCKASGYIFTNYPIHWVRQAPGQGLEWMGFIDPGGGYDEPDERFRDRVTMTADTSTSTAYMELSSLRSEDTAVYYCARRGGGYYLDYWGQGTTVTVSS VL: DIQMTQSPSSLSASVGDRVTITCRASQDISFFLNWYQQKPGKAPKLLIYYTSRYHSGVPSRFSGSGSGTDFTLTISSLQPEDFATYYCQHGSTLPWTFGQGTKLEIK")
"~0.4 µg/mL"
>>> reported_result("NMT18-101 (antibody, V domains shown) VH: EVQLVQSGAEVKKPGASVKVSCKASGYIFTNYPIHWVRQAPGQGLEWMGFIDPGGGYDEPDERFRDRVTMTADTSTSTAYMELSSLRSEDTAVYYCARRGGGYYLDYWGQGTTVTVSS VL: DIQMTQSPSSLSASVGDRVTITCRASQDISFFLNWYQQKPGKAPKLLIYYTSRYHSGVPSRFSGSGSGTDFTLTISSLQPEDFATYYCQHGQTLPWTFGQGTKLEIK")
"~0.5 µg/mL"
>>> reported_result("NMT18-100 (antibody, V domains shown) VH: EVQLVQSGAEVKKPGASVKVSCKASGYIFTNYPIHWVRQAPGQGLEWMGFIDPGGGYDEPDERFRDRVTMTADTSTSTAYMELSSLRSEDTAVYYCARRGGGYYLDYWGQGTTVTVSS VL: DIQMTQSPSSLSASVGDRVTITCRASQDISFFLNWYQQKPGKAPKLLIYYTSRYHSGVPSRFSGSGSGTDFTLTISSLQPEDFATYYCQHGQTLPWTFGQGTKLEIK")
"~0.5 µg/mL"

Could you now consider this next binder?
Form: binder = NMT28-100 (antibody, V domains shown) VH: EVQLVQSGAEVKKPGASVKVSCKASGYIFTNYPIHWVRQAPGQGLEWMGFIDPGGGYDEPDERFRDRVTMTADTSTSTAYMELSSLRSEDTAVYYCARRGGGYYLDYWGQGTLVTVSS VL: DIQMTQSPSSLSASVGDRVTITCRASQDISFFLNWYQQKPGKAPKLLIYYTSRYHSGVPSRFSGSGSGTDFTLTISSLQPEDFATYYCQHGQTLPWTFGQGTKVEIK ; IC50 (read off the curve): C3b deposition (sheet title: LPS C3b 10% NHS) = ~0.5 µg/mL
